test: physchem; details: pH 2.7
parameter: chromatographic logP
Answer field: number only, no words.

Q: Give recorded chromatographic logP. CON=Cc1ccccc1C1CC(c2csc(C3CCN(C(=O)Cn4nc(C(F)F)cc4C(F)F)CC3)n2)=NO1 (stereo not shown)
A: 3.59

Q: Give recorded chromatographic logP. CC(C)(C)OC(=O)Nc1ccc(C2CC(c3csc(C4CCN(C(=O)Cn5nc(C(F)F)cc5C(F)F)CC4)n3)=NO2)cc1 (stereo not shown)
A: 3.45

Q: Give recorded chromatographic logP. C[Si](C)(C)C#CCOc1ccccc1C1CC(c2csc(C3CCN(C(=O)Cn4nc(C(F)F)cc4C(F)F)CC3)n2)=NO1 (stereo not shown)
A: 4.71

Q: Give recorded chromatographic logP. CON=Cc1ccccc1C1CC(c2csc(C3CCN(C(=O)Nc4cc(Cl)ccc4C)CC3)n2)=NO1 (stereo not shown)
A: 3.95
